Origin of the recorded values: PubChem BioAssay AID686978

Experiment: qHTS for Inhibitors of human tyrosyl-DNA phosphodiesterase 1 (TDP1): qHTS in cells in absence of CPT; also: nearly all actives have a fitted effect of over 55% in size
Settings: DT40 Tdp1-/- hTDP1 cells, no CPT, ATP luminescence, 48 h
Hit rate of the full screen: of about 420,000 compounds, about 64,000 (15%) were called active. Not shown: some 27% with an inconclusive outcome. Not all results are given here.
Parameter Measured: outcome

> print(dat)
                  compound.structure.string  value.measured
1  CCN(CC)S(=O)(=O)c1ccc(Cl)c(NC(=O)c2ccncc2)c1        inactive
2  CC(C)c1ccc(NC(=O)COC(=O)c2ccc(CN3CCCC3=O)cc2)cc1        inactive
3  CCOc1cc(/C=C2/C(=N)N3OC(C)=CC3=NC2=O)ccc1OC        inactive
